# target entity: Beta-2 adrenergic receptor (Homo sapiens) (UniProt P07550)
# Sequence (P07550 whole entry, looked up): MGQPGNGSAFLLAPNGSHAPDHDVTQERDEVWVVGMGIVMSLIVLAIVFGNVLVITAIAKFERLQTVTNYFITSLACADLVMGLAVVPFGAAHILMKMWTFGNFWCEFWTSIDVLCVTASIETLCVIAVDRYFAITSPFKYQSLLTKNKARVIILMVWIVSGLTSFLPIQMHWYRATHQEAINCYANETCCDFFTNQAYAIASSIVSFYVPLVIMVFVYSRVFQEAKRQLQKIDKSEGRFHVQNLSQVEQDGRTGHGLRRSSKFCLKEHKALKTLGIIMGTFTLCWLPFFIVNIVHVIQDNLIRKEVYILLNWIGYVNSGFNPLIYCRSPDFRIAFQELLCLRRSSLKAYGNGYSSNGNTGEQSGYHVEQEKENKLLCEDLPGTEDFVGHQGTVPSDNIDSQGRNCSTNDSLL
# assay explanation: beta2AR agonists driving receptor internalization, pilot screen, cell-based, FAP fluorogen, flow cytometry, validation set (AID 504459);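 also: agonist-driven loss of surface beta2AR via internalization measured by FAP dye flow cytometry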
# condition notes: Am2.2-beta2AR cells, FAP surface receptor flow cytometry; at 10 µM; stronger effect = higher value
Please mark MET if the recorded response is equal to or greater than -10%, and NOT MET if it falls below.

Would you please look over these solved cases?
C[N+](C)(C)CCOP(=O)(O)OP(=O)([O-])OC[C@H]1O[C@@H](n2ccc(N)nc2=O)[C@H](O)[C@@H]1O : MET
O=c1oc2c(CN3CCN(CCO)CC3)c(O)ccc2cc1-c1ccccn1 : MET

Threshold query (response >= -10%) on COc1ccccc1C(CC(=O)Nc1ccccc1C)c1ccc(OC(C)C)cc1 (stereo unspecified) NOT MET

Threshold query (response >= -10%) on O=C(NCCc1nc2ccccc2[nH]1)c1cccc(Br)c1 MET

Threshold query (response >= -10%) on COc1ccc2cc(-c3nc4ccccc4n3C)c(=O)oc2c1 NOT MET

Threshold query (response >= -10%) on Cc1oc2ccc(OC(=O)c3cccs3)cc2c1C(=O)OC(C)C NOT MET

Threshold query (response >= -10%) on CC[n+]1ccc2cc(OC)c(OC)cc2c1Cc1ccc(OC)c(OC)c1 NOT MET

====

Listed molecules paired with reported GFP response, % of DMSO
# assay explanation: modulators of CIT2-GFP expression in yeast, confirmation, S. cerevisiae, GFP fusion, cherry picks, mother/daughter gates (AID 2274)
# condition notes: S. cerevisiae CIT2-GFP strain, flow cytometry, 3 h; measured here: mother cell gate; at 10 µM; stronger effect = higher value
A complete answer gives the number and then names the unit.

Look over these answered cases.
CCOc1ccc(/C=C/C(=O)c2c(O)cc(C)oc2=O)cc1 : 92.6%
Cn1cnc([N+](=O)[O-])c1S(=O)(=O)c1cccc(Cl)c1 : 113%
CC(C)(C)NC(=O)c1ccccc1-c1nc(-c2ccccc2Cl)no1 : 93.2%
COC(=O)Cn1nc(-c2ccccc2)c2cc(Cl)ccc21 : 112%
O=C1C(=O)c2ccc(-c3ccccc3)cc2-c2ccccc21 : 102%
CCN(Cc1ccccc1)S(=O)(=O)c1ccc(C(=O)Nc2nnc(C3CC3)o2)cc1 : 96.8%
CCc1c2ccccc2nn1-c1ccccc1C(=O)C(C)=O : 98.2%
CCN1CCN(C(=O)C2CCN(c3nnc(C)c4c(C)n(-c5ccc(C)cc5)nc34)CC2)CC1 : 98%

Per the records, this molecule ( O=C(O)c1ccn2c(C(=O)c3ccc(Cl)cc3)c(-c3ccccc3)cc2c1 ) has GFP response, % of DMSO equal to 92.1%

Per the records, this molecule ( COc1ccc(C(c2c(C)[nH]n(C(N)=S)c2=O)C(C#N)C#N)cc1 (stereo not drawn) ) has GFP response, % of DMSO equal to 79.3%

Per the records, this molecule ( CCc1oc2ccccc2c1C(=O)CCN1CCCCC1 ) has GFP response, % of DMSO equal to 96.8%

Per the records, this molecule ( Cc1ccc(/C=C2/NC(=O)N(Cc3ccccc3)C2=O)o1 ) has GFP response, % of DMSO equal to 101%

Per the records, this molecule ( Cc1cc(NCCN2CCOCC2)n2ncc(-c3ccccc3)c2n1 ) has GFP response, % of DMSO equal to 104%

Per the records, this molecule ( Cc1onc(-c2ccccc2)c1C(=O)NC(=S)NNC(=O)c1ccco1 ) has GFP response, % of DMSO equal to 99.7%
